pKi: −log10 of the molar value.
Collected pKi for Prothrombin (Homo sapiens, UniProt P00734) across several studies; compounds listed below.
Class TRUE: pKi at least 6. Class FALSE: pKi below 6.

Solved cases (3 shown):
{"COMPOUND": "CC(C)[C@@H](O)C(=O)N1CCC[C@H]1C(=O)NCc1cc(Cl)ccc1CN", "CLASS_ASSIGNMENT": "TRUE"}
{"COMPOUND": "CC(=O)N[C@H](Cc1ccccc1)C(=O)N1CCC[C@H]1C(=O)N[C@@H](CCCn1ncnc1N)B1O[C@@H]2CC3CC(C3(C)C)[C@]2(C)O1 (some centres not stated)", "CLASS_ASSIGNMENT": "TRUE"}
{"COMPOUND": "COC(=O)CC1(C(=O)Nc2ccc(-c3ccccc3S(N)(=O)=O)nc2)CC(c2cccc(C(=N)N)c2)=NO1 (configuration not stated)", "CLASS_ASSIGNMENT": "FALSE"}

Please tell me: is the compound "Nc1noc2ccc(-n3nc(C(F)(F)F)c4c3C(=O)N(c3ccc(-c5ccccc5CN5CC[C@@H](O)C5)cc3)CC4)cc12" at or over 6 in terms of pKi?
TRUE

Does the reported pKi for "Cc1cnc(NCC(F)(F)c2ccccc2)c(=O)n1CC(=O)NCc1cnc(N)cn1" fall at or above the 6 mark?
TRUE

Is it the case that "N=C(N)c1ccc(Oc2cc(NC(=O)C3CCN(CCO)CC3)cc(Oc3ccc(C(=N)N)cc3)c2)cc1" has pKi reaching or exceeding 6?
FALSE

Could you please find out whether "N=C(N)c1cccc(CN2CC[C@H](NS(=O)(=O)c3ccc(-c4ccccn4)cc3)C2=O)c1" has pKi that meets 6 or exceeds it?
FALSE

Please tell me: is the compound COC(=O)CC1(C(=O)Nc2ccc(-c3cccc(OC)c3)cc2)CC(c2cccc(C(=N)N)c2)=NO1 (configuration not stated) at or over 6 in terms of pKi?
FALSE

Please check the record "COc1ccc2ccc(S(=O)(=O)N(C)[C@H]3CCN(Cc4cc(C(=N)N)ccc4NC(C)=O)C3=O)cc2c1" and state if its pKi is at or above 6.
FALSE

Can "Cc1nc(N)ccc1CNC(=O)Cn1c(C)cc(S(=O)(=O)c2cccs2)c(N)c1=O" be said to have pKi at or above 6?
TRUE

Decide: pKi of CCOc1cc(OC(C)C)c(F)c(C(Nc2ccc(C(=N)N)cc2)c2nc(-c3ccc(OC)cc3)c[nH]2)c1 (configuration not stated) >= 6?
TRUE
